# Tested on: SNB-19 CNS
# experimental protocol: NCI-60 one-dose screen, 48 h (100 = growth as untreated, 0 = no growth, -100 = all killed)
# reported conditions: 10 µM unless noted
Compounds without any hit were thinned out: in the full panel of roughly 83,000, 20% have a hit.
Param threshold (90%) applies to growth; output Fulfilled when value >= threshold, Not fulfilled when value < threshold.

molecule	assigned category
Cc1nc(/N=C(\N)NC(=O)Nc2cccc(Cl)c2)sc1C	Not fulfilled
COc1ccc(OC)c(/C=C/c2nnc(Nc3ccccc3)o2)c1	Fulfilled
Cc1cc(-c2cc(C)c(N)cc2C)c(C)cc1N	Not fulfilled
CC(=O)CC(c1ccccc1)c1c(C)[nH]c2ccccc12 (configuration not stated)	Fulfilled
CC(=O)O.CN1[CH-]N(Cc2ccc(C#N)cc2)c2ccccc21.[Ag+]	Fulfilled

Identify whether the reported growth of the following molecule is 90% or greater: O=c1c2cc(F)ccc2sc2c(N3CCCCC3)nc3ccccc3c12
Fulfilled

Given O=c1c2cc(F)ccc2sc2c(NCCCNCCO)nc3ccc(F)cc3c12 , state whether its growth is at least 90%.
Not fulfilled

Given Oc1c(I)cc(I)cc1CNCCCN(Cc1ccccn1)Cc1ccccn1 , state whether its growth is at least 90%.
Not fulfilled

Is reported growth greater than or equal to 90% here: O=C(Nc1ccc(Cl)cc1F)c1cc(Cl)ccc1O
Not fulfilled

----------
# System: HCT-116 colon
# experimental protocol: NCI-60 one-dose screen, 48 h (100 = growth as untreated, 0 = no growth, -100 = all killed)
# reported conditions: 10 µM unless noted
This is part of a sample that, as a whole, favours compounds with a hit. Of some 83,000 tested, about 20% had one in any assay. Active and inactive are the calls of the source. The calls were made as follows: active = growth percent below 10; inactive = the rest.
Form field: growth (one value per entry).

As a guide, the following entries are already answered.
> print(dat)
                                   compound  system.under.test  quantity.measured          reported
1  Cc1cccc2c3c(sc12)C(c1ccc(Cl)cc1)C(C#N)=C(N)O3 (stereo unspecified)      HCT-116 colon             growth  14.2% (inactive)
2  COc1nc2ccccc2cc1-c1nc2c(cnn2-c2ccc(Br)cc2)c(=O)[nH]1      HCT-116 colon             growth  23.1% (inactive)
3    COc1ccc(/C=C(/C#N)n2nnc3cccc(F)c32)cc1      HCT-116 colon             growth  10.1% (inactive)
4  Cc1nc(NC(=O)COc2ccc(/C=C3\Cc4ccc(Cl)cc4C3=O)cc2)sc1C      HCT-116 colon             growth   109% (inactive)
5  CCCCC1CCCC12NC(=O)NC2=O (stereo unspecified)      HCT-116 colon             growth  99.4% (inactive)

HCT-116 colon data for COc1ccc(C2=Nn3c(nnc3-c3cc(Cl)cc(Cl)c3Cl)SC2)cc1 ; its growth: -27% (active)

Lab entry: HCT-116 colon assay, compound CC(C)(C)NC(=O)C(OC(=O)c1cccc(Cl)c1)c1ccc(Cl)cc1 (stereo unspecified) , growth = 74.7% (inactive)

Considering Cc1ccc2sc3c(NCCCN)nc4ccccc4c3c(=O)c2c1 , its growth with HCT-116 colon was recorded as -53.2% (active)

Bench note, HCT-116 colon: entry Cc1ccc(-c2nc(N3CCN(CC(=O)Nc4ccc(Cl)c(C(F)(F)F)c4)CC3)c3ccccc3n2)cc1 , its growth = 79.2% (inactive)

growth value, target or system HCT-116 colon, for Cc1cc(Cl)ccc1NS(=O)(=O)c1ccc(-c2cnc(C3CC3)o2)cc1 : 12.9% (inactive)

Item N#Cc1cccc(NC(=O)c2cc(-c3ccc(F)cc3F)ccc2O)c1 was tested on HCT-116 colon; the reported growth is 7.36% (active)

Reading of growth for O=C(CCc1nnc(-c2c(Cl)cccc2Cl)o1)c1nc2ccccc2[nH]1 with HCT-116 colon: 22.1% (inactive)

Summary line: O=C(/C=C/c1sc(Cl)nc1Cl)c1ccccc1 , HCT-116 colon, reported growth = 34% (inactive)

Observed growth on HCT-116 colon, entry C=CCNc1ccc2c3c(cccc13)C(=O)N(N1C(=O)c3cccc4cccc(c34)C1=O)C2=O , equals 99.6% (inactive)

Reported HCT-116 colon growth for item O=C(O)CCC/C=C\C[C@H]1C=CC(=O)/C1=C/C[C@@H](O)CCc1cccc(C(F)(F)F)c1 was -66.4% (active)
